# STUDY TARGET: MAP kinase-interacting serine/threonine-protein kinase 2 (Homo sapiens)
# REPORTED CONDITIONS: at 1 µM
# Description: GSK_PKIS: MNK2 mean inhibition at 1 uM [Nanosyn]
MEASURED ATTRIBUTE: inhibition (%)
Kindly answer with a numeric value in %, unit omitted.

Consider the reported inhibition for these molecules:
Value (inhibition, MAP kinase-interacting serine/threonine-protein kinase 2 (Homo sapiens)) for record "O=C(Nc1n[nH]c2nc(-c3ccco3)ccc12)C1CC1" = 4.01

Entry "Fc1ccc(-c2ncn(C3CCNCC3)c2-c2ccnc(Oc3ccc(F)c(F)c3)n2)cc1" , MAP kinase-interacting serine/threonine-protein kinase 2 (Homo sapiens) data, inhibition value: 1.04

Recorded inhibition for "COc1ccc(-c2ccc3c(NC(=O)C4CC4)n[nH]c3n2)cc1" on MAP kinase-interacting serine/threonine-protein kinase 2 (Homo sapiens) was 5.48

For the molecule "c1ccc(Oc2ccc(Nc3ncc(-c4ccccc4)o3)cc2)cc1" , the measured inhibition on MAP kinase-interacting serine/threonine-protein kinase 2 (Homo sapiens) was 2.44

Others:
# value of inhibition, MAP kinase-interacting serine/threonine-protein kinase 2 (Homo sapiens), item COc1ccc2cc(-c3c(-c4ccncc4)nc(-c4ccc([S+](C)[O-])cc4C)n3C)ccc2c1 (stereo not given) = 3.96
